MIC for assorted molecules
Test system: Vibrio cholerae
protocol_text: Antibacterial activity against Vibrio cholerae after 48 hrs by agar well diffusion method
Assay type: functional
Your answer is read as µg/mL, so omit the unit and give the number.

Worked cases, answers included:
molecule: [Br-].[Br-].c1cc2nc(c1)C[n+]1cn(c3ccccc31)Cc1cc3ccccc3nc1Oc1ccc3ccccc3c1-c1c(ccc3ccccc13)Oc1nc3ccccc3cc1Cn1c[n+](c3ccccc31)C2
experimental_readout: MIC
unit_text: µg/mL
readout_number: 45

molecule: CN[C@@H]1[C@H](O[C@H]2[C@H](O[C@H]3[C@H](O)[C@@H](O)[C@H](N=C(N)N)[C@@H](O)[C@@H]3N=C(N)N)O[C@@H](C)[C@]2(O)C=O)O[C@@H](CO)[C@H](O)[C@H]1O [STREPTOMYCIN]
experimental_readout: MIC
unit_text: µg/mL
readout_number: 25

molecule: [Br-].[Br-].c1cc2nc(c1)C[n+]1ccn(c1)Cc1cc3ccccc3nc1Oc1ccc3ccccc3c1-c1c(ccc3ccccc13)Oc1nc3ccccc3cc1Cn1cc[n+](c1)C2
experimental_readout: MIC
unit_text: µg/mL
readout_number: 10

molecule: [Br-].[Br-].c1cc2cc(c1)C[n+]1cn(c3ccccc31)Cc1cc3ccccc3nc1Oc1ccccc1Oc1nc3ccccc3cc1Cn1c[n+](c3ccccc31)C2
experimental_readout: MIC
unit_text: µg/mL
readout_number: 25

Here's the next entry for you.
Consider the molecule "[Br-].[Br-].c1cc2cc(c1)C[n+]1ccn(c1)Cc1cc3ccccc3nc1Oc1ccccc1Oc1nc3ccccc3cc1Cn1cc[n+](c1)C2" and give its recorded MIC.
35
